# System: S-adenosylmethionine synthetase
# run-description: S-adenosylmethionine synthetase (MAT) activity in vitro in crude extracts, FIA-MS/MS
# Assay type: biochemical, E. coli
# stated-conditions: 10 mM methionine, 10 mM ATP, 37° C., 30 minutes
Entries and their MAT (S-adenosylmethionine synthetase activity)
The figure you give is taken to be in mUI/mg prot; do not add the unit.

The examples below pair each entry with its known result.
>  <molecule>
MetK* H189Y (protein, UniProt P0A817 2-384, looked up, variant H189Y) S-adenosylmethionine synthase: AKHLFTSESVSEGHPDKIADQISDAVLDAILEQDPKARVACETYVKTGMVLVGGEITTSAWVDIEEITRNTVREIGYVHSDMGFDANSCAVLSAIGKQSPDINQGVDRADPLEQGAGDQGLMFGYATNETDVLMPAPITYAHRLVQRQAEVRKNGTLPWLRPDAKSQVTFQYDDGKIVGIDAVVLSTQYSEEIDQKSLQEAVMEEIIKPILPAEWLTSATKFFINPTGRFVIGGPMGDCGLTGRKIIVDTYGGMARHGGGAFSGKDPSKVDRSAAYAARYVAKNIVAAGLADRCEIQVSYAIGVAEPTSIMVETFGTEKVPSEQLTLLVREFFDLRPYGLIQMLDLLHPIYKETAAYGHFGREHFPWEKTDKAQLLRDAAGLK

>  <output-unit>
mUI/mg prot

>  <numeric-result>
0.6

$$$$
>  <molecule>
MetK* H143T (protein, UniProt P0A817 2-384, looked up, variant H143T) S-adenosylmethionine synthase: AKHLFTSESVSEGHPDKIADQISDAVLDAILEQDPKARVACETYVKTGMVLVGGEITTSAWVDIEEITRNTVREIGYVHSDMGFDANSCAVLSAIGKQSPDINQGVDRADPLEQGAGDQGLMFGYATNETDVLMPAPITYATRLVQRQAEVRKNGTLPWLRPDAKSQVTFQYDDGKIVGIDAVVLSTQHSEEIDQKSLQEAVMEEIIKPILPAEWLTSATKFFINPTGRFVIGGPMGDCGLTGRKIIVDTYGGMARHGGGAFSGKDPSKVDRSAAYAARYVAKNIVAAGLADRCEIQVSYAIGVAEPTSIMVETFGTEKVPSEQLTLLVREFFDLRPYGLIQMLDLLHPIYKETAAYGHFGREHFPWEKTDKAQLLRDAAGLK

>  <output-unit>
mUI/mg prot

>  <numeric-result>
2.5

$$$$

Let us move to another entry and its MAT (S-adenosylmethionine synthetase activity).
What measured MAT (S-adenosylmethionine synthetase activity) goes with MetK* T227I (protein, UniProt P0A817 2-384, looked up, variant T227I) S-adenosylmethionine synthase: AKHLFTSESVSEGHPDKIADQISDAVLDAILEQDPKARVACETYVKTGMVLVGGEITTSAWVDIEEITRNTVREIGYVHSDMGFDANSCAVLSAIGKQSPDINQGVDRADPLEQGAGDQGLMFGYATNETDVLMPAPITYAHRLVQRQAEVRKNGTLPWLRPDAKSQVTFQYDDGKIVGIDAVVLSTQHSEEIDQKSLQEAVMEEIIKPILPAEWLTSATKFFINPIGRFVIGGPMGDCGLTGRKIIVDTYGGMARHGGGAFSGKDPSKVDRSAAYAARYVAKNIVAAGLADRCEIQVSYAIGVAEPTSIMVETFGTEKVPSEQLTLLVREFFDLRPYGLIQMLDLLHPIYKETAAYGHFGREHFPWEKTDKAQLLRDAAGLK ? 4.9
